- Test system: MKL-2
- experimental-details: qHTS assay to identify novel small-molecules to repurpose for Merkel cell carcinoma treatment (AID 1296009); also: nearly all actives have a fitted effect of over 60% in size
- test-settings: MCC and control cell lines, CellTiter-Glo viability, 72 h; series mostly up to 46 µM
Records with an inconclusive call do not appear. Calls of active or inactive are those of the source. Calls follow the shape of the dose curve; as a rule, active = well fitted inhibition curve with a large enough effect; inconclusive = small, poorly fitted or top-dose-only effect; inactive = flat fitted curve, though single readings scatter.
quantity: outcome

Examples with answers:
structure-as-smiles | outcome
CC(C)(C#N)c1cc(Cn2cncn2)cc(C(C)(C)C#N)c1 | inactive
CN(Cc1cc(Br)cc(Br)c1N)C1CCCCC1 | inactive
CCC(=O)O[C@]1(C(=O)CCl)[C@@H](C)C[C@H]2[C@@H]3CCC4=CC(=O)C=C[C@]4(C)[C@@]3(F)[C@@H](O)C[C@@]21C | inactive
O=C(N[C@H](CO)[C@H](O)c1ccc([N+](=O)[O-])cc1)C(Cl)Cl | inactive

Now for a further compound.
## Input What measured outcome goes with "CCn1cc(C(=O)O)c(=O)c2cc(F)c(N3CCN(C)CC3)cc21" ?
## Output inactive
